Target: T1, human transferrin receptor (recombinant, for surface plasmon resonance) (human, UniProt P02786 89-760)
T1 construct: also called huTfR; human transferrin receptor-biotinylated
T1 sequence (P02786 89-760 limits assumed): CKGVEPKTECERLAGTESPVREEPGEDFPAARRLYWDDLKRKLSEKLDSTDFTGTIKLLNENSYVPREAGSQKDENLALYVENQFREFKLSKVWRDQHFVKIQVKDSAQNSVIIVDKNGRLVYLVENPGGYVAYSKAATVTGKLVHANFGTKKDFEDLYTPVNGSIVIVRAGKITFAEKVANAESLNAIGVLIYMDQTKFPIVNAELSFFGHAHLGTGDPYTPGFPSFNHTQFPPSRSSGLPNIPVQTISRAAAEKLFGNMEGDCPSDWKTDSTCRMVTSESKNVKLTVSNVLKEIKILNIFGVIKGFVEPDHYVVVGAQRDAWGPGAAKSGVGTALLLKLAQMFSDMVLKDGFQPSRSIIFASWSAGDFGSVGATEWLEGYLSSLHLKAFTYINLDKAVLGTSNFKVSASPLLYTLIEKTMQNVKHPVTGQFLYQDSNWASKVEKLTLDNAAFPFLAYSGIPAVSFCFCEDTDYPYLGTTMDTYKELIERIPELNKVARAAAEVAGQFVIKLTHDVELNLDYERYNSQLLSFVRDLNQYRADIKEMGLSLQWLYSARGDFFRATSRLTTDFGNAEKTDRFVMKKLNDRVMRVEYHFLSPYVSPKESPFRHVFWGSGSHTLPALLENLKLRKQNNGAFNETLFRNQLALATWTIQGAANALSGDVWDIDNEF
Test: SPR 25C

# binder, koff
measured = [
    ("2/99 VH18/VL1 (antibody, V domains shown) VH: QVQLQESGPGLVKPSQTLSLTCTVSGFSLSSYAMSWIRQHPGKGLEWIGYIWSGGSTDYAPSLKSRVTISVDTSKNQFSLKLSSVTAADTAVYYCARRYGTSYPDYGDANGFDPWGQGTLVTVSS VL: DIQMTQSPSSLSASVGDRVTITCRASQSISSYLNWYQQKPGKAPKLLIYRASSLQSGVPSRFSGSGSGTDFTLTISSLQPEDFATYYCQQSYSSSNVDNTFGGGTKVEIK", "0.001 s⁻¹"),
    ("2/99 VH17/VL17 (antibody, V domains shown) VH: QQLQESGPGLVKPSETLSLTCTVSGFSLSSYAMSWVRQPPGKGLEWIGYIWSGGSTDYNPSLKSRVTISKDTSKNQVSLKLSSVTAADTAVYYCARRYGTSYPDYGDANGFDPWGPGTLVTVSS VL: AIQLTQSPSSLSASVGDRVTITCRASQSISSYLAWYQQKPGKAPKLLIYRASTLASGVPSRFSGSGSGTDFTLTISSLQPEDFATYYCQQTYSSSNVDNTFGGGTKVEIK", "0.000988 s⁻¹"),
    ("2/99 VH20/VL17 (antibody, V domains shown) VH: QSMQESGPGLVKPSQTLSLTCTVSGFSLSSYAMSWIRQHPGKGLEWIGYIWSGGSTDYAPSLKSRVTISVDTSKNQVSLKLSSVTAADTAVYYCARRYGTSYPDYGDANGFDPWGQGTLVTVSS VL: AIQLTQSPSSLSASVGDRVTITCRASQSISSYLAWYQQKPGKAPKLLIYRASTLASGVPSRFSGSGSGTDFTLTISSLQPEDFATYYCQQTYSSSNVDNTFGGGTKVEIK", "0.00457 s⁻¹"),
]
